- ASSAY NOTES: In vitro cytotoxicity assay (MTT)
- Format: cell-based, mouse
- EXPERIMENTAL SETUP: mouse, RAW264.7 cells, conc. 0.08 μM; read-out: cell viability relative to 0 μM (fig. S5e)
VALUE KIND: viability at 24 h, 0.08 μM (%)
Lab book: enter the figure in %, no units written.

{"SMILES TEXT": "CC(=O)/C(=N\\Nc1ccccc1C(=O)O)C(=O)Nc1ccccn1", "viability at 24 h, 0.08 μM (%)": 107}
{"SMILES TEXT": "CCOC(=O)c1sc(NC(=O)/C(=N/Nc2ccccc2C(=O)O)C(C)=O)nc1C", "viability at 24 h, 0.08 μM (%)": 105}

Okay, now this compound:
Exam item: Which viability at 24 h, 0.08 μM reading was recorded for the compound CCOC(=O)c1sc(NC(=O)/C(=N/Nc2ccc(O)cc2C(=O)O)C(C)=O)nc1C ?
Marked response: 98.4
